method: folding enthalpy; higher = less favourable; fluorescence melt of hairpins on a sequencing array, two-state fit
cond: sodium 0.088 M
Attribute: folding enthalpy
Kindly provide the numeric value in kcal/mol only, without the unit symbol.

Worked cases, answers included:
GCGAACGAAAGTTCACGC ((((((....)))..)))
-22.9
ATAGGGAAACCTAT (((((....)))))
-11.2
GCTACGCGAAAGCCTAGC ((((.((....)).))))
-23.3
GATCTTATCGAAGATC ((((((....))))))
-20.8
GTGAGGGCGAAAGCCCAC (((..(((....))))))
-11.6
CGCGGGCGGAAACGCGCG (((..(((....))))))
-14.9
GGGGCAGGAAACTGCCTC (.(((((....))))).)
-13.1
GCCCCCGGAAACGGAGGC (((.(((....))).)))
-35

Data request: Entry GCAAAGCGAAAGCTACGC ((..(((....)))..)) : reported folding enthalpy = ?
Data returned: -11

Data request: For GCCTTTGGAAACAGAGGC ((((.((....)).)))) , what is its reported folding enthalpy?
Data returned: -31.1

Data request: What does the data say about its folding enthalpy? Entry: GATCCGTCCACGGATC ((((((....))))))
Data returned: -43

Data request: Fill in the blank: the reported folding enthalpy of GTGTGTCGAAAGACGCAC (((.(((....))).))) is ____.
Data returned: -37.7

Data request: # query: folding enthalpy of entry GCATGTCGAAAGACTTGC (((.(((....))).)))
Data returned: -43.8

Data request: Param item = GTGCGCGAAAGCGACAC ((((((....))).))) ; retrieve measured folding enthalpy.
Data returned: -16.9

Data request: Any idea what its folding enthalpy is? The sequence is GGGATTGGAAACGATCTC (.(((.(....).))).)
Data returned: -15.3

Data request: Entry under review: GCGAAGGGAAACCCTCGC ((((.((....)).)))) . Reported folding enthalpy?
Data returned: -42.3

Data request: Could you share which folding enthalpy value was measured for GTGATTGGAAACAATCGC (.(((((....))))).) ?
Data returned: -40.7

Data request: Form field: reported folding enthalpy of GAAAACCGAAAGGTTTC (((.(((....))))))
Data returned: -15.9

Data request: Give its folding enthalpy value. Item: GACGGCGGAAACACCGCC (.(((.(....).))).)
Data returned: -10.1

Data request: // lookup folding enthalpy for GCTTTTGCGAAAGCAAGC (((..(((....))))))
Data returned: -10.3

Data request: Look up folding enthalpy: GATCTCTCGAGAGATC ((((((....))))))
Data returned: -40.5

Data request: Consider the sequence GATCGCAAAGGCGATC ((((((....)))))) and give its measured folding enthalpy.
Data returned: -41.9

Data request: I have this sequence here, GATCTATAGGTAGATC ((((((....)))))) , and I need its recorded folding enthalpy.
Data returned: -32.8

Data request: So what's the measured folding enthalpy for this one? GATCCGGCTTCGGATC ((((((....))))))
Data returned: -39.8

Data request: What folding enthalpy value was documented for this sequence, GATCTCATCCGAGATC ((((((....)))))) ?
Data returned: -39.2
